Target: soluble H-2K^b (Mus musculus)
Construct: heavy chain residues 1-274 with C-terminal His-tag and β2-microglobulin residues 1-99; His-tag (C); made in house; host or cells: Drosophila melanogaster cells
Assay: Affinity measurements for binding of peptides to soluble H-2K^b (inhibition assay)
Settings: 23° C.; means of 5 values, SE 10-15%; read-out: KD 23° C.
No end group written: not given here.
measured-endpoint: Kd (µM)
One number for each entry, in µM.

Solved cases below.
| item-sequence | Kd, µM |
| --- | --- |
| SAPDFRPL [MUC1-8-5F8L] | 0.06 |
| SAPDFRPA [MUC1-8-5F] | 0.13 |
| SAPDTRPL [MUC1-8-8L] | 0.25 |

Measured Kd of SAPDTRPA [MUC1-8, reference compound] : 0.877

* * *

Target: soluble H-2K^b (Mus musculus)
Construct: heavy chain residues 1-274 with C-terminal His-tag and β2-microglobulin residues 1-99; His-tag (C); made in house; host or cells: Drosophila melanogaster cells
Assay: Affinity measurements for binding of peptides to soluble H-2K^b (inhibition assay)
Conditions: 37° C.; means of 5 values, SE 10-15%; read-out: KD 37° C.
No end group written: not given here.
measured-endpoint: pKd
Answers are plain numbers, as −log10 of the molar value.

| item-sequence | pKd |
| --- | --- |
| SAPDTRPL [MUC1-8-8L] | 5.05 |

Items follow; give pKd for each.
1. SAPDFRPL [MUC1-8-5F8L]
2. SAPDTRPA [MUC1-8, reference compound]
3. SAPDFRPA [MUC1-8-5F]

[6.52, 4.43, 5.31]

* * *

Exercise: for every item that follows, state its recorded pKd.
Biological target: soluble H-2K^b (Mus musculus, UniProt P01901)
Construct: heavy chain residues 1-274 with C-terminal His-tag and β2-microglobulin residues 1-99; His-tag (C); made in house; host or cells: Drosophila melanogaster cells
Assay: Affinity measurements for binding of peptides to soluble H-2K^b (inhibition assay)
Conditions: 4° C.; means of 5 values, SE 10-15%; read-out: KD 4° C.
Text: […]
No end group written: not given here.
One number for each entry, as −log10 of the molar value.

// worked examples, pKd included
| item-sequence | system | value-observed |
| --- | --- | --- |
| SAPDTRPA [MUC1-8, reference compound] | soluble H-2K^b (Mus musculus, UniProt P01901) | 6.36 |
| SAPDTRPL [MUC1-8-8L] | soluble H-2K^b (Mus musculus, UniProt P01901) | 6.82 |
| SAPDFRPL [MUC1-8-5F8L] | soluble H-2K^b (Mus musculus, UniProt P01901) | 6.80 |

Alright, here's another sequence for you.
pKd in this record for SAPDFRPA [MUC1-8-5F] : 6.34

* * *

Molecular target: soluble H-2K^b (Mus musculus)
Construct: heavy chain residues 1-274 with C-terminal His-tag and β2-microglobulin residues 1-99; His-tag (C); made in house; host or cells: Drosophila melanogaster cells
Sequence (P01901 22-295): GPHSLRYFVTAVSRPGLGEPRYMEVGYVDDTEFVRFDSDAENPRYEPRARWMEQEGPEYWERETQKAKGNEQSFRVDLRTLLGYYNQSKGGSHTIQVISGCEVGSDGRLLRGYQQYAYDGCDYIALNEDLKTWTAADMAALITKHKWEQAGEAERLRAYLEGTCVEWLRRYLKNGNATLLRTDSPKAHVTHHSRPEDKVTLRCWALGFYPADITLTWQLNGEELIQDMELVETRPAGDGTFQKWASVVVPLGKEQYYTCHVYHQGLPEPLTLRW
Sequence (P01887 21-119 partner): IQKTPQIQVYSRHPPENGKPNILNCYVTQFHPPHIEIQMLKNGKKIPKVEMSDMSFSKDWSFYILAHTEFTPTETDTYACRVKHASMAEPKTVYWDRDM
Assay: Affinity measurements for binding of peptides to soluble H-2K^b (inhibition assay)
Conditions: 23° C.; read-out: affinity measured in an inhibition assay
No end group written: not given here.
measured-endpoint: pKd
One number for each entry, as −log10 of the molar value.

Entry SAPDTRPA [MUC1-8, reference compound] — recorded pKd = 6.06

* * *

Target: soluble H-2K^b (Mus musculus, UniProt P01901)
Construct: heavy chain residues 1-274 with C-terminal His-tag and β2-microglobulin residues 1-99; His-tag (C); made in house; host or cells: Drosophila melanogaster cells
Assay: Affinity measurements for binding of peptides to soluble H-2K^b (inhibition assay)
Conditions: 4° C.; read-out: affinity measured in an inhibition assay
No end group written: not given here.
measured-endpoint: Kd
Number first, unit second.

Short answer for SAPDTRPA [MUC1-8, reference compound] : Kd was 0.43 µM
